# METHOD: AUC (0 to 24 hrs) in ICR mouse at 25 micromol/kg, po by LC-MS/MS analysis
# Assay type: ADME, organism-based
# EXPERIMENTAL_PARAMETERS: ICR, in vivo, dose 25 µmol/kg
MEASURE: AUC(0-t) (µM·h)
Please state the figure in µM·h; there is no need to write the unit.

query: Using the record for CN(CC#Cc1ccccc1)c1nc(=O)c2cc(C(F)(F)F)cc([N+](=O)[O-])c2s1 , report its AUC(0-t).
result: 5.16

* * *

# TARGET_SYSTEM: Decaprenylphosphoryl-beta-D-ribose oxidase (Mycobacterium tuberculosis (strain ATCC 25618 / H37Rv)) (UniProt P9WJF1)
# Sequence (P9WJF1 whole entry): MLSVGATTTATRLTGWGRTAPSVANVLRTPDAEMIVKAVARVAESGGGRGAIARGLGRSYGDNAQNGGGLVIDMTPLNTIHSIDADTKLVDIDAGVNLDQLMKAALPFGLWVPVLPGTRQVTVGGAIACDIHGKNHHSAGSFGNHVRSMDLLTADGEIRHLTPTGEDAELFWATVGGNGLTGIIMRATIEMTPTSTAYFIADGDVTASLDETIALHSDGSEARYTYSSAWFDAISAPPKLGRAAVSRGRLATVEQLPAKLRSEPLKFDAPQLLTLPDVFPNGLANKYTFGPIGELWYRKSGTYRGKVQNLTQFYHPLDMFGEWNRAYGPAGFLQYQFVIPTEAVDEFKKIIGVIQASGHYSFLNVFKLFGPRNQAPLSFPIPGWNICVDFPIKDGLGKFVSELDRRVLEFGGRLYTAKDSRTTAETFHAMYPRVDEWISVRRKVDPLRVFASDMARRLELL
# METHOD: Time-dependent covalent inhibition of recombinant Mycobacterium tuberculosis DprE1 expressed in Escherichia coli by Amplex Red/peroxidase coupled assay
The source made the active and inactive calls. The calls are words filed in the database; no cut-off is given here.
MEASURE: TDI

Recorded TDI, per entry:
> print(dat)
                           smiles.structure  reported.value
1  CN(CC#CC1CCCCC1)c1nc(=O)c2cc(C(F)(F)F)cc([N+](=O)[O-])c2s1          Active
2  CN(CC#CCc1ccccc1)c1nc(=O)c2cc(C(F)(F)F)cc([N+](=O)[O-])c2s1          Active
3  CN(C/C=C/c1ccccc1)c1nc(=O)c2cc(C(F)(F)F)cc([N+](=O)[O-])c2s1          Active
4  CN(CC#Cc1ccccc1)c1nc(=O)c2cc(C(F)(F)F)cc([N+](=O)[O-])c2s1          Active
5  CN(CC#Cc1cccs1)c1nc(=O)c2cc(C(F)(F)F)cc([N+](=O)[O-])c2s1          Active

Now take the following molecule into account.
query: Return reported TDI; argument: CN(C/C=C\c1ccccc1)c1nc(=O)c2cc(C(F)(F)F)cc([N+](=O)[O-])c2s1
result: Active
